Below, each entry is listed with its recorded clearance.
Assay: Clearance in dog at 1 mg/kg, iv or 5 mg/kg, po
Format: ADME, organism-based, Canis lupus familiaris
Conditions: in vivo
All answers are understood in mL/min/kg, so give the number only.

Exam item: Any idea what its clearance is? The compound is Cc1ncn(C)c1NC(=O)[C@H]1CCC[C@@H](N(C)C(=O)c2cccc(C(F)(F)F)c2)C1
Marked response: 17.6

Exam item: Any idea what its clearance is? The compound is Cc1ncn(C)c1-c1nnc([C@H]2CCC[C@@H](N(C)C(=O)c3cccc(Cl)c3)C2)[nH]1
Marked response: 8.8

We next turn to a different compound, shown below.
Exam item: Any idea what its clearance is? The compound is Cc1ncn(C)c1-c1nnc([C@@H]2C[C@H](N(C)C(=O)c3cccc(C(F)(F)F)c3)CCO2)[nH]1
Marked response: 8.4
